system: EM-2 (Chronic Myelogenous Leukemia); assay: combination Emax (second highest fraction inhibited in the dose matrix, 72 h); higher = more inhibition; extreme values may be limits of the assay
measurement_type: combination Emax
When you answer, write just the number.

Some molecules with recorded combination Emax:
molecule | combination Emax
CS(=O)(=O)CCNCc1ccc(-c2ccc3ncnc(Nc4ccc(OCc5cccc(F)c5)c(Cl)c4)c3c2)o1 [Lapatinib] + C[C@@H](Oc1cc(-c2cnn(C3CCNCC3)c2)cnc1N)c1c(Cl)ccc(F)c1Cl [Crizotinib] (first compound max 10 µM, 7x7, partner max 10 µM) | 1
Cn1cnc2c(F)c(Nc3ccc(Br)cc3Cl)c(C(=O)NOCCO)cc21 [Selumetinib] + C[C@@H]1COCCN1C2=NC(=NC(=C2)C3(CC3)[S@](=N)(=O)C)C4=C5C=CNC5=NC=C4 [AZD6738] (first compound max 10 µM, 7x7, partner max 10 µM) | 0.954
Cc1cc2ncnn2cc1Nc1ncc2c(n1)n(C1CCOCC1)c(=O)n2C [AZD7648] + C[C@@H]1COCCN1C2=NC(=NC(=C2)C3(CC3)[S@](=N)(=O)C)C4=C5C=CNC5=NC=C4 [AZD6738] (first compound max 10 µM, 7x7, partner max 10 µM) | 0.957

Asked: Tell me its combination Emax given COc1cccc(OCCCN)c1-c1cc(Nc2cnc(C#N)cn2)n[nH]1 [Prexasertib] + CCc1c2c(nc3ccc(O)cc13)-c1cc3c(c(=O)n1C2)COC(=O)[C@]3(O)CC [SN-38] (first compound max 1 µM, 7x7, partner max 0.3 µM) as the entry.
Given back: 0.982

* * *

test system: MFH-ino (Other Solid Carcinomas); experiment: Bliss excess, mean over the matrix (fraction); higher = more synergy;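 further: after 72 h of two-drug dosing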
Please note: YES applies when Bliss excess is -0.06 or greater, and NO applies otherwise.

Solved cases below.
compound | measured_on | label_class
CS(=O)(=O)CCNCc1ccc(-c2ccc3ncnc(Nc4ccc(OCc5cccc(F)c5)c(Cl)c4)c3c2)o1 [Lapatinib] + Cn1cnc2c(F)c(Nc3ccc(Br)cc3Cl)c(C(=O)NOCCO)cc21 [Selumetinib] (first compound max 10 µM, 7x7, partner max 10 µM) | MFH-ino (Other Solid Carcinomas) | YES
C[C@@H](c1ccc2nccn2c1)n1nnc2ncc(-c3cnn(C)c3)nc21 [Savolitinib] + CC1(C)CCC(CN2CCN(c3ccc(C(=O)NS(=O)(=O)c4ccc(NCC5CCOCC5)c([N+](=O)[O-])c4)c(Oc4cnc5[nH]ccc5c4)c3)CC2)=C(c2ccc(Cl)cc2)C1 [Venetoclax] (first compound max 1 µM, 7x7, partner max 1 µM) | MFH-ino (Other Solid Carcinomas) | NO
COc1cccc(OCCCN)c1-c1cc(Nc2cnc(C#N)cn2)n[nH]1 [Prexasertib] + Cc1cc2ncnn2cc1Nc1ncc2c(n1)n(C1CCOCC1)c(=O)n2C [AZD7648] (first compound max 1 µM, 7x7, partner max 10 µM) | MFH-ino (Other Solid Carcinomas) | YES
Cc1cc2ncnn2cc1Nc1ncc2c(n1)n(C1CCOCC1)c(=O)n2C [AZD7648] + O=C(c1cc(Cc2n[nH]c(=O)c3ccccc23)ccc1F)N1CCN(C(=O)C2CC2)CC1 [Olaparib] (first compound max 10 µM, 7x7, partner max 10 µM) | MFH-ino (Other Solid Carcinomas) | NO
CC1(C)CCC(CN2CCN(c3ccc(C(=O)NS(=O)(=O)c4ccc(NCC5CCOCC5)c([N+](=O)[O-])c4)c(Oc4cnc5[nH]ccc5c4)c3)CC2)=C(c2ccc(Cl)cc2)C1 [Venetoclax] + Cc1cc2ncnn2cc1Nc1ncc2c(n1)n(C1CCOCC1)c(=O)n2C [AZD7648] (first compound max 1 µM, 7x7, partner max 10 µM) | MFH-ino (Other Solid Carcinomas) | YES

Asked: Hello, I need to know if Cc1c2c(nn1C)CSCc1cc(n(C)n1)CSc1cc(c3ccccc3c1)OCCCc1c(C(=O)O)n(C)c3c-2c(Cl)ccc13 [AZD5991] + Nc1ccn([C@@H]2O[C@H](CO)[C@@H](O)C2(F)F)c(=O)n1 [Gemcitabine] (first compound max 1 µM, 7x7, partner max 0.3 µM) has measured Bliss excess not below -0.06. Thanks!
Given back: YES
